# Tested system: ZmDRIK1-K217-P492 (Zea mays, UniProt C0P4K9)
# Construct: kinase domain, K217-P492
# Sequence (C0P4K9 1-514): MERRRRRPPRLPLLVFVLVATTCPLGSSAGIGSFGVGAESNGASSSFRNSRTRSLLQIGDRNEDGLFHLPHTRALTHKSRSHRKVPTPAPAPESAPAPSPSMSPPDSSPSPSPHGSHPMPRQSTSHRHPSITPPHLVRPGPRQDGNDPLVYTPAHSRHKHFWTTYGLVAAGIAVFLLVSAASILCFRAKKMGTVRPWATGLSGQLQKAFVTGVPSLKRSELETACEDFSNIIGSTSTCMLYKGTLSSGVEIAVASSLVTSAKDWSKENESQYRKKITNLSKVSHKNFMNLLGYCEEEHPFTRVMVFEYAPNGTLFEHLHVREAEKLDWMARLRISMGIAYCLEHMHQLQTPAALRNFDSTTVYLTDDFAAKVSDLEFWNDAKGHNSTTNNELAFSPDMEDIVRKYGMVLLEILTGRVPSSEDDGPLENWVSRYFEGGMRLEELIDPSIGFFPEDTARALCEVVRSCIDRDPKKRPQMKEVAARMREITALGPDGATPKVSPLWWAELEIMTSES
# Assay remarks: biochemical
# Applied conditions: read-out: dTm B, sheet ZmDRIK1-K217-P492;; DSF, Boltzmann fit, 0.1% DMSO
Structures can show the parent of a compound that is named as a salt.
// map ΔTm at 10 µM to label using low bracket = under -1 °C, middle bracket = from -1 °C up to -0.8 °C, high bracket = -0.8 °C and over

Compound	Tested system	Class name
CCCCCCCCc1ccc(CCC(N)(CO)CO)cc1 [Fingolimod (FTY720) HCl]	ZmDRIK1-K217-P492 (Zea mays, UniProt C0P4K9)	low bracket
CCn1c(N)c(C(=O)NC)c(=O)c2ccc(C#C[C@@](C)(O)COC)nc21	ZmDRIK1-K217-P492 (Zea mays, UniProt C0P4K9)	middle bracket
Cc1cc(O)c2c(c1)C(=O)c1cccc(O)c1C2=O	ZmDRIK1-K217-P492 (Zea mays, UniProt C0P4K9)	low bracket
COc1cc2/c(=N/c3ccc(Br)cc3F)nc[nH]c2cc1OCC1CCN(C)CC1 [Vandetanib (ZD6474)]	ZmDRIK1-K217-P492 (Zea mays, UniProt C0P4K9)	middle bracket

Consider C=CC(=O)Nc1cccc(Oc2nc(Nc3ccc(N4CCN(C)CC4)cc3)ncc2Cl)c1 . To which ΔTm at 10 µM class does it belong?
high bracket

Next record, please: CN(C)c1ccc(-c2nc3ncc(Cl)c(N4CCN(CC(=O)Nc5nccs5)CC4)c3[nH]2)cc1
middle bracket

Can you handle Cc1[nH]c(/C=C2\C(=O)Nc3ccc(S(=O)(=O)N(C)c4cccc(Cl)c4)cc32)c(C)c1C(=O)N1CCN(C)CC1 next?
high bracket

// data source = paper PMC7158045
